Biological target: Neu5Ac(a2-3)Gal(b1-4)[Fuc(a1-3)]GlcNAc(b1-3)GalNAc
Experiment: glycan array binding signal (z-score within array); higher = stronger binding
Details: glycan notation: IUPAC condensed, linker removed
About 410 targets per protein were measured; listed, in parts, are those with the strongest signals and a random draw of the rest.
Consider the following binders; for each one, report its glycan array binding signal (z-score).

Below, each entry is followed by its recorded glycan array binding signal (z-score) result.
{"columns": ["BINDER", "glycan array binding signal (z-score)"],
 "data": [
  ["OrysaEULS2 (Oryza sativa) (protein) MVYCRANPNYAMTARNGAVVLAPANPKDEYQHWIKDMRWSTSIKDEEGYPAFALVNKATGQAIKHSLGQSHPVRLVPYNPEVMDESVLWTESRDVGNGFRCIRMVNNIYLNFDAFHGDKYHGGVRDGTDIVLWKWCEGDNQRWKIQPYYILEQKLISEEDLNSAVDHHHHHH", -0.145],
  ["ArathEULS3 (Arabidopsis thaliana), Q945P1 (protein) MEHHHQHHRHHQRDDGEDDRQSFGVPPPHVDAPPQPHGLYQSQPHFDPYAPTPQAPAPYRSETQFEPHAPPPYRSEPYFETPAPPPSFGHVSHVGHQSPNESYPPEHHRYGGYQQPSNSLLESHGDHSGVTHVAHHSSNQPQSSSGVYHKPDENRLPDNLAGLAGRATVKVYSKAEPNYNLTIRDGKVILAPADPSDEAQHWYKDEKYSTKVKDADGHPCFALVNKATGEAMKHSVGATHPVHLIRYVPDKLDESVLWTESKDFGDGYRTIRMVNNTRLNVDAYHGDSKSGGVRDGTTIVLWDWNKGDNQLWKIFPFILEQKLISEEDLNSAVDHHHHHH", 2],
  ["LSectin (Mus musculus), Q8BNX1 (protein) MNTGEYNKLGSAIEEVSRGQLGRWECYKQRLFFLVLALLVATVLWALILSTLLSSASSKLRVLLSHQDLLRTNASEQKMTLSSLKDDIGACRNCCSVTKAQLQTTLAEFKDIQAKLMEQESILKELQERVTQDLAKASRDRENIRSELFQALEAVKRQNSSCEQCPPSWLPFQGSCYYFSETQATWDTAQSYCGGQGAHLVIVRGLNEQGFLSQHTRGRGYWLGLRAVRHLNKIQGYRWVDGASLNFSHWNSGEPNDSRGHEDCIMMLHSGLWNDAPCTNERDGWICEKRSSCY", -0.154]
]}

query: What does the data say about its glycan array binding signal (z-score)? Entry: TAL6-4LysM (Trichoderma atroviride) (protein) AADSIPSISPTGIITPTPTQSGMVSNCNKFYDVHSNDGCSAIASSQHVDLSSLYKWNPAIKTDCSGLQASVYVCIGILTTSMSTTSKLPTTTSKPSTTSKPPTGITTPTPTQSGMVKNCNKFYDVHSGDGCSAIASSQKVNLSSFYLWNPAVKTDCSGLQASVFVCIGTLTTSMSTTTSKLPTTTSKPSTTSKPPTGIITPTPTQNGMVKNCNKFYDVHSGDGCSAIASSQKVNLSSFYLWNPAVKTDCSGLQASVFVCVGTATTTTAAGITTPTPTQSGMVSGCNKFYDVHAGDGCSAIASSQKIALSSLYKWNPAVKTDCSGLQASVYICIGVGNAAAARVTGALEQKLISEEDLNSAVDHHHHHH
result: -0.18
